- target.or.system: Phosphatidylinositol 4,5-bisphosphate 3-kinase catalytic subunit beta isoform (Homo sapiens)
- Sequence (P42338 whole entry, canonical isoform): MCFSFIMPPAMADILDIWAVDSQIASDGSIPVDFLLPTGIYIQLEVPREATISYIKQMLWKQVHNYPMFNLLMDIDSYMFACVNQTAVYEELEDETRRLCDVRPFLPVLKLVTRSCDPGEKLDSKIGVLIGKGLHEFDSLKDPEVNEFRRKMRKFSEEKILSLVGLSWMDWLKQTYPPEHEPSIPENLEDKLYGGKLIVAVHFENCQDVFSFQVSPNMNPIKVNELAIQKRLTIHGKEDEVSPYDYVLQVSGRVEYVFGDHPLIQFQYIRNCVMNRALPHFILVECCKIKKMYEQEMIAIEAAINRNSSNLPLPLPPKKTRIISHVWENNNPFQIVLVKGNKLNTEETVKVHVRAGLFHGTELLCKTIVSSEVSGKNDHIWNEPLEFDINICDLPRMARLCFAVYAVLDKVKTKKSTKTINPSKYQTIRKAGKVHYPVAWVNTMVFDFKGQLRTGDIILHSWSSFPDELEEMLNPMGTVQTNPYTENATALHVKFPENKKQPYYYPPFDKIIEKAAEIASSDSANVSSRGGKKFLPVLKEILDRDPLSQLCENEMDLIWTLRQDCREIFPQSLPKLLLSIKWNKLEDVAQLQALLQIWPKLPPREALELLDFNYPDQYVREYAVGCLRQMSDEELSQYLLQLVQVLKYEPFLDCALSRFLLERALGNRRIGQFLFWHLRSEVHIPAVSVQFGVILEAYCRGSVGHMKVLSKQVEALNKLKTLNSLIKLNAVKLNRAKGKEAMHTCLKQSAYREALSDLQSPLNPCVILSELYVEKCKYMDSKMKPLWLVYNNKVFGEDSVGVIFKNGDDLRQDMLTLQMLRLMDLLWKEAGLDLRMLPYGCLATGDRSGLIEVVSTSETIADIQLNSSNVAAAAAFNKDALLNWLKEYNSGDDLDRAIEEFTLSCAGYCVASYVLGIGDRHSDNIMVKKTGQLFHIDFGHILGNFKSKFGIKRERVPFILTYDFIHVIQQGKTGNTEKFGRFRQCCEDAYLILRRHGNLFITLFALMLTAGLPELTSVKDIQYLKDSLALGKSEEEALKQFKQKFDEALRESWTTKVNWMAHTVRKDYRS
- assay.comment: Inhibition of human PI3Kbeta by TR-FRET based Adapta assay
assay.endpoint: pIC50
In textbook form, pIC50 equals minus log to base ten of the concentration in mol/L.

Exam item: What value of pIC50 has been reported for the following compound? CNCCN(CCO)c1nc(N2CCOCC2)nc(-n2c(C(F)F)nc3ccccc32)n1
Marked response: 6.20
